targetUnderTest: rat adrenergic α1B receptor (Rattus norvegicus, UniProt P15823)
Construct: rat adrenergic α1B receptor obtained from Wistar Rat liver; from tissue; host or cells: Wistar rat liver
Sequence (P15823 whole entry): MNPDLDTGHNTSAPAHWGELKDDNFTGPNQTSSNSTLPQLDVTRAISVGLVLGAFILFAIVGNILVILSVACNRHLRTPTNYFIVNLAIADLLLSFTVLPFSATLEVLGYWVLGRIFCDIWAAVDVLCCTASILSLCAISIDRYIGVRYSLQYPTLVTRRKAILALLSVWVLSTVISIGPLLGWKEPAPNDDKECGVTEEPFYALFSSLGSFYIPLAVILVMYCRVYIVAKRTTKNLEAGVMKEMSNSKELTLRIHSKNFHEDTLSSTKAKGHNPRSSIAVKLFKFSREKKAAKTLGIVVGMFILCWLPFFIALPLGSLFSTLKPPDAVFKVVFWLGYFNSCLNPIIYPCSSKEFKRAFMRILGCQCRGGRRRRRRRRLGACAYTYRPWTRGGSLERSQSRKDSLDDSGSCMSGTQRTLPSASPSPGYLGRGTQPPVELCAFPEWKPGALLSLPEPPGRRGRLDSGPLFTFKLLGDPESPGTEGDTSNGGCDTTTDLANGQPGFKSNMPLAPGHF
assayComment: Radioligand binding, adrenergic α1B ([3H]Prazosin)
studyConditions: read-out: Percentage inhibition of ligand binding, Adrenergic α1B (0.1 μM), compound at 0.1 μM; [3H]Prazosin; repeat datapoints each shown
propertyMeasured: inhibition at 0.1 µM (%)
Use % as the unit, but write only the number.

Exam item: May I ask what inhibition at 0.1 µM has been recorded for C/C(=C/n1c2c(c3cc(Cl)ccc31)CCN(C)CC2)c1ccc(Cl)cc1Cl [compound 228] ?
Marked response: 64

Exam item: Given the compound COCc1ccc(/C(C)=C/n2c3c(c4cc(C)ccc42)CN(C)CC3)cn1 [compound 126] , what is its reported inhibition at 0.1 µM?
Marked response: 30

Exam item: Item C/C(=C\n1c2c(c3cc(C)ccc31)CN(C)CC2)c1c(C)noc1C [compound 110] has what recorded inhibition at 0.1 µM?
Marked response: 5

Exam item: Report inhibition at 0.1 µM for CC(=O)Nc1ccc(/C(C)=C\n2c3c(c4cc(C)ccc42)CN(C)CC3)cn1 [compound 111] please.
Marked response: 56

Exam item: Given the compound CN1CCc2c(c3ccccc3n2CCc2ccccc2)C1 [compound 182] , what is its reported inhibition at 0.1 µM?
Marked response: 29

Exam item: Data request, read-out inhibition at 0.1 µM, for CCN1CCc2c(c3cc(C)ccc3n2CCc2ccc(C)cc2)C1 [compound 202]
Marked response: 52

Exam item: Name the reported inhibition at 0.1 µM value associated with the compound Cc1ccc2c(c1)c1c(n2C2=C(c3ccncc3)CCC2)CCN(C)C1 [compound 114]
Marked response: 15

Exam item: Returns the measured inhibition at 0.1 µM for the input compound. Input: Cc1ccc(C(O)Cn2c3c(c4cc(C)ccc42)CN(C)CC3)cc1 (racemic) [compound 183]
Marked response: 71

Exam item: What value of measured inhibition at 0.1 µM is listed for Cc1ccc2c(c1)c1c(n2CC(O)c2ccncc2)CCN2CCCC12 (single isomer, unassigned) [129c] ?
Marked response: 94

Exam item: // lookup inhibition at 0.1 µM for Cc1ccc2c(c1)c1c(n2CC(O)c2cnn[nH]2)CCN2CCCC12 (stereo not drawn) [II-138]
Marked response: 57

Exam item: Would you mind telling me what inhibition at 0.1 µM value was observed for CN1CCc2c(c3c(Cl)cccc3n2CCc2ccccc2)C1 [compound 214] ?
Marked response: 18

Exam item: What does the data say about its inhibition at 0.1 µM? Entry: Cc1ccc2c(c1)c1c(n2CC(C)(O)c2ccc[nH]c2=O)CCN(C)C1 (stereo not drawn) [II-143]
Marked response: 13

* * *

targetUnderTest: human recombinant adrenergic α2B receptor (Homo sapiens)
Construct: expressed in transfected cells; host or cells: CHO-K1
Sequence (P18089 whole entry): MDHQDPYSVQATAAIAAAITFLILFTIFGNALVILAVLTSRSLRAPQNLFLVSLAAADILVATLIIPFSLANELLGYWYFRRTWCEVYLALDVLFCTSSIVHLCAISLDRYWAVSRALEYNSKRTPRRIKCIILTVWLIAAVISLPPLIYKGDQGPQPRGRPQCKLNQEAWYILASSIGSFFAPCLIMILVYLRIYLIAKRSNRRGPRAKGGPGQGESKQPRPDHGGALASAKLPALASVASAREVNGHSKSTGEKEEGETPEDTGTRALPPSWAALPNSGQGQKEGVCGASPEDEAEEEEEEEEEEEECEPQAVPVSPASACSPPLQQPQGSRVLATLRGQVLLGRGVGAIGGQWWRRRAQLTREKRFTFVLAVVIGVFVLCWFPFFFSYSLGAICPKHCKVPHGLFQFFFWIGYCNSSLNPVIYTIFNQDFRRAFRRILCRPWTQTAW
assayComment: Radioligand binding, adrenergic α2B ([3H]Rauwolscine)
studyConditions: compound at 0.03 μM; [3H]Rauwolscine; repeat assays, each datapoint shown; 0.03 µM
Returns one of True or False; True when Percentage inhibition of ligand binding, Adrenergic α2B is >= 40%.

Sample answers from the record:
1. Cc1ccc2c(c1)c1c(n2CC(O)c2cc[n+]([O-])cc2)CCN(C)C1 (centres unmarked) [69b]    False
2. Cc1ccc2c(c1)c1c(n2CC(O)c2ccncc2)CC2CCCCN2C1 (racemic) [75b]    True
3. CC(C)(O)CCN1CCc2c(c3cc(Cl)ccc3n2CC(O)c2ccncc2)C1 (single isomer, unassigned) [11a]    False
4. Cc1ccc2c(c1)c1c(n2CC(C)(O)c2ccccn2)CN(C)CC1 (single isomer, unassigned) [16b]    False

Exam item: Identify whether the reported Percentage inhibition of ligand binding, Adrenergic α2B of the following molecule is 40% or greater: Cc1ccc2c(c1)c1c(n2CC(OC(=O)C(N)C(C)C)c2ccncc2)CCN(C)C1 (single isomer, unassigned) [25b]
Marked response: True

Exam item: Entry Cc1ccc2c(c1)c1c(n2CCc2cccnc2)CCN(C)C1 [compound 61] : is its Percentage inhibition of ligand binding, Adrenergic α2B no less than 40%?
Marked response: True

Exam item: I'd appreciate it if you could say whether Cc1ccc2c(c1)c1c(n2CC(O)c2cccnc2)CCNC1 (single isomer, unassigned) [9b] has Percentage inhibition of ligand binding, Adrenergic α2B at least equal to 40%.
Marked response: True

// data source = patent US8791132B2
